Target: Phospholipid hydroperoxide glutathione peroxidase GPX4 (Homo sapiens)
Assay: Primary qHTS Assay for Inhibitors of Recombinant Selenoprotein Glutathione Peroxidase 4 (GPX4) (AID 1845192); further: nearly all actives have a fitted effect of over 65% in size; on activity change, negative = inhibition: on the % scale 0 is the no-effect control and ±100 the full control effect
Details: recombinant GPX4, GR-coupled NADPH fluorescence, 15 min; series mostly up to 27.8 µM
Procedure: Assay Provider: Elias S.J. Arner MD PhD. Department of Medical Biochemistry and Biophysics Karolinska Institutet, Solna, Stockholm, Sweden […] 6; Detection; Fluorescence; ViewLux microplate reader, excitation 340 nm and emission 450 nm. […] 8; Detection; Fluorescence; ViewLux microplate reader, excitation 340 nm and emission 450 nm. […] 6. Initial fluorescence readout (t=0) at 340/450 nm was measured using a ViewLux multimodal detector (PerkinElmer, Waltham, MA). […]
Records with an inconclusive call do not appear. The source made the active and inactive calls. The call rests on the fitted dose curve; in most records, active means well fitted inhibition curve with a large enough effect; inconclusive means small, poorly fitted or top-dose-only effect; inactive means flat fitted curve, though single readings scatter.
ASSAY ENDPOINT: activity change, negative = inhibition

For orientation, consider the following solved cases.
>>> result("COCC1OC(OC(C)(C)C2CCC3(C)C=C(C4CCC5C4(C)CC(O)C4OC(C(C)(C)O)CCC45C)CCC3O2)C(NC(C)=O)C(O)C1O (stereo not given)")
"inactive"
>>> result("C=C(CCO[C@@H]1O[C@H](CO)[C@@H](O)[C@H](O)[C@H]1O)C(=O)O")
"inactive"
>>> result("CC1(C)CC[C@]2(C(=O)O)CC[C@]3(C)C(=CCC4[C@@]5(C)CC[C@H](O)C(C)(C)C5CC[C@]43C)C2C1 (stereo not given in full)")
"inactive"
>>> result("NC[C@@H]1O[C@@H](O[C@@H]2[C@@H](O[C@@H]3O[C@H](CO)[C@@H](O)[C@H]3O)[C@H](O)[C@@H](N)C[C@H]2N)[C@@H](N)[C@H](O)[C@H]1O")
"inactive"
>>> result("C[C@]1(OC(=O)/C=C/c2ccc(O)cc2)C[C@@H](O)[C@]2(O)C=CO[C@@H](O[C@@H]3O[C@H](CO)[C@@H](O)[C@H](O)[C@H]3O)C12 (stereo not given in full)")
"inactive"

Task item: Param item = `C=C(C)[C@@H]1CC[C@]2(CO)CC[C@]3(C)[C@H](CC[C@@H]4[C@@]5(C)CC[C@H](O)C(C)(C)[C@@H]5CC[C@]43C)[C@@H]12` ; retrieve measured activity change, negative = inhibition.
Reply: inactive

Task item: Dear colleague, I am looking for the recorded activity change, negative = inhibition of the following compound: `O=S(=O)(O)c1ccc(Nc2ncnc3c2ncn3[C@@H]2O[C@H](CO)[C@@H](O)[C@H]2O)cc1`
Reply: inactive

Task item: For the compound `C=C[C@H]1[C@H](O[C@@H]2O[C@H](CO)[C@@H](O)[C@H](OC(=O)/C=C/c3ccc(O)c(OC)c3)[C@H]2O)OC=C2C(=O)OCC[C@]21O` , what activity change, negative = inhibition is on record?
Reply: inactive

Task item: Which activity change, negative = inhibition is reported for this compound? CCC(C)/C=C(C)/C=C/C1=CC2=C(Cl)C(=O)C(C)(OC(C)=O)C(=O)C2=CN1C(CCC(=O)O)C(=O)O (stereo not given)
Reply: inactive

Task item: Fill in: activity change, negative = inhibition of C=C1CC[C@@]2(OC1)O[C@H]1CC3[C@@H]4CC=C5C[C@@H](O)C[C@@H](O[C@@H]6OC[C@H](O)[C@H](O)[C@H]6O[C@@H]6O[C@@H](C)[C@H](O)[C@@H](O)[C@H]6O)[C@]5(C)C4CC[C@]3(C)[C@H]1[C@@H]2C (stereo not given in full) is ___
Reply: inactive

Task item: What activity change, negative = inhibition value was documented for this compound, `CC(=O)OC/C(=C/C(=O)O)CC[C@@H]1C(C)=CC(=O)[C@@H]2C(C)(C)CCC[C@@]12C` ?
Reply: inactive

====

Test: Primary redox qHTS assay for identification of artifact compounds. (AID 1845223);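 further: 0% = DMSO and 100% = reference compound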
Conditions: Amplex Red/HRP redox cycling with DTT, fluorescence; series mostly up to 53.8 µM
Results filed as inconclusive are left out. Active and inactive are the calls of the source. Calls come from the whole dose curve; as a rule, active = well fitted activation curve with a large enough effect; inconclusive = small, poorly fitted or top-dose-only effect; inactive = flat fitted curve, though single readings scatter.
ASSAY ENDPOINT: redox activity (% of DA3003)

Use the examples below as a reference point.
>>> result("CC/C=C\\CC1C(CC(=O)O)CCC1OC1OC(CO)C(O)C(O)C1O (configuration not stated)")
"inactive"
>>> result("C[C@@H](c1ccccc1)N(C(N)=NC#N)c1cccc2ncccc12")
"inactive"
>>> result("Nc1ccc(-n2nc(C(F)(F)F)cc2C(F)(F)F)cc1")
"inactive"
>>> result("O=C1NC(=O)/C(=C/c2cccc(C(F)(F)F)c2)S1")
"inactive"
>>> result("OC[C@@]1(O)CO[C@H](OC[C@H]2O[C@@H](OC(CCCCc3ccc(O)cc3)CCc3ccc(O)cc3)[C@H](O[C@H]3OC[C@](O)(CO)[C@H]3O)[C@@H](O)[C@@H]2O)[C@@H]1O (some centres not stated)")
"inactive"

Task item: May I ask what redox activity (% of DA3003) has been recorded for `COC(=O)C1=CO[C@@H](O[C@@H]2O[C@H](CO)[C@@H](O)[C@H](O)[C@H]2O)[C@H]2[C@@H]1C=C[C@]21C=C([C@H](C)OC(=O)/C=C/c2ccc(O[C@@H]3O[C@H](CO)[C@@H](O)[C@H](O)[C@H]3O)cc2)C(=O)O1` ?
Reply: inactive

Task item: Which redox activity (% of DA3003) is listed for `COC(=O)c1ccc(OC)cc1O[C@@H]1O[C@H](CO[C@@H]2OC[C@@H](O)[C@H](O)[C@H]2O)[C@@H](O)[C@H](O)[C@H]1O` ?
Reply: inactive

====

System: CASKI
Experiment: Primary qHTS to identify gynecologic anti-cancer compounds using libraries of approved drugs and bioactive compounds (AID 1345084); further: on the % scale 0 is the no-effect control and ±100 the full control effect; nearly all actives have a fitted effect of over 55% in size
Settings: Gynecologic cancer cell panel viability, ATPlite luminescence, 48 h; series mostly up to 57.5 µM
Results filed as inconclusive are left out. Calls of active or inactive are those of the source. The call rests on the fitted dose curve; in most records, active means well fitted cell-killing curve with a large enough effect; inconclusive means small, poorly fitted or top-dose-only effect, or effect the other way; inactive means flat fitted curve, though single readings scatter.
ASSAY ENDPOINT: activity change, negative = cytotoxicity

>>> result("CCc1nn(CCO)c(CC)c1Oc1cc(C#N)cc(C#N)c1")
"inactive"
>>> result("CC(C)=CCC[C@](C)(O[C@@H]1O[C@H](CO[C@@H]2O[C@@H](CO)[C@H](O)[C@H]2O[C@@H]2OC[C@@H](O)[C@H](O)[C@H]2O)[C@@H](O)[C@H](O)[C@H]1O)[C@H]1CC[C@]2(C)[C@@H]1[C@H](O)CC1[C@@]3(C)CC[C@H](O[C@@H]4O[C@H](CO)[C@@H](O)[C@H](O)[C@H]4O[C@@H]4O[C@H](CO)[C@@H](O)[C@H](O)[C@H]4O)C(C)(C)C3CC[C@]12C (stereo partly drawn)")
"10.9% [at 6.55 µM] (inactive)"
>>> result("COc1cc(/C=C/C(=O)O[C@@H]2O[C@H](CO)[C@@H](O)[C@H](O)[C@H]2O)ccc1O")
"inactive"

====

Test system: HEK293
Assay: Cytotoxic Profiling of Annotated Libraries Using Quantitative High-Throughput Screening (AID 1296008); further: on the % scale 0 is the no-effect control and ±100 the full control effect; nearly all actives have a fitted effect of over 60% in size
Conditions: Five cell lines viability, CellTiter-Glo ATP luminescence, 48-72 h; stronger effect = lower value
Records with an inconclusive call do not appear.
Reported max response values for a set of compounds
State the answer as a number, implicitly in %.

# count of solved cases: 2
>>> number("CC1(C)CC[C@]2(C(=O)O)CC[C@]3(C)C(=CCC4[C@@]5(C)C[C@@H](O)[C@H](O)[C@@](C)(CO)C5CC[C@]43C)C2C1 (stereo partly drawn)")
2.88
>>> number("CC(=O)N[C@H]1[C@H](O[C@H]2CC[C@]3(C)C4CC=C5[C@@H]6CC(C)(C)CC[C@]6(C(=O)O)[C@H](O)C[C@@]5(C)[C@]4(C)CC[C@H]3C2(C)C)O[C@H](CO)[C@@H](O)[C@@H]1O (stereo partly drawn)")
-6.92

Task item: Consider the compound shown here: COc1cc(C2Oc3c(OC)cc(CCCO)cc3C2CO)ccc1O (stereo not drawn) What is its recorded max response?
Reply: 3.43

Task item: Suppose we examine the compound `O=C(OC[C@H]1O[C@H](O[C@]2(CO)O[C@H](CO)[C@@H](O)[C@@H]2O)[C@H](O)[C@@H](O)[C@@H]1O)c1ccc(O)cc1` ; what max response value has been reported?
Reply: 1.1

====

Quick list: max response per entry.
System: CRL-7250
Test: Cytotoxic Profiling of Annotated Libraries Using Quantitative High-Throughput Screening (AID 1296008); further: on the % scale 0 is the no-effect control and ±100 the full control effect; nearly all actives have a fitted effect of over 60% in size
Settings: Five cell lines viability, CellTiter-Glo ATP luminescence, 48-72 h; stronger effect = lower value
Inconclusive results are not listed.
// units = %; emit number, no label

>>> number("C=C1C(O)CC2C(C(=O)O)=COC(OC3OC(CO)C(O)C(O)C3OC(=O)/C=C\\c3ccc(O)cc3)C12 (stereo not drawn)")
0.287
>>> number("CC(C)(O)[C@@H]1CC[C@]2(CO)[C@@H](O)CC[C@](C)(O)[C@H]2[C@@H]1O[C@@H]1O[C@H](CO)[C@@H](O)[C@H](O)[C@H]1O")
1.76
>>> number("CN[C@H](CNC(=O)N1CCC[C@@H]([C@@H](OCCNC(=O)OC)c2cccc(Cl)c2)C1)C[C@H]1CCCOC1")
-5.16

Task item: May I ask what max response has been recorded for Nc1ncnc2c1C(=O)N(c1ccc(C3CCC(CC(=O)O)CC3)cc1)CCO2 (stereo not drawn) ?
Reply: 2.41

Task item: Request the reported max response associated with `COc1cc(C(=O)OC[C@H]2O[C@@H](OC(C)(C)C(=O)O)[C@H](O)[C@@H](O)[C@@H]2O)cc(OC)c1O`
Reply: -2.21

Task item: Form field: reported max response of CC1=C2CC(=O)C(C)CC/C=C(\C)CC2(O)OC1=O (stereo not drawn)
Reply: -4.8

Task item: Which measured max response value corresponds to CC(C)C(O)(CO)CCO[C@@H]1O[C@H](CO[C@H]2OC[C@](O)(CO)[C@H]2O)[C@@H](O)[C@H](O)[C@H]1O (stereo partly drawn) ?
Reply: 2.62

Task item: Dear colleague, I am looking for the recorded max response of the following compound: C[C@@]1(C(=O)O)CCC[C@@]2(C)C3=CC[C@H]4C[C@@]3(CC[C@H]12)CC4(O)CO (stereo partly drawn)
Reply: -19

Reference for the values: PubChem BioAssay (NCATS)
